biological target: T1, recombinant cynomolgus monkey PD-L1 with a C-terminal myc-myc-hexahistidine tag (cynomolgus monkey (Macaca fascicularis)); experiment: SPR (Biacore), mAb captured, 37C
T1 construct: also called MfPD-L1-MMH; MfPD-L1-MMH Monomer
T1 sequence (chain, as listed by the source limits assumed): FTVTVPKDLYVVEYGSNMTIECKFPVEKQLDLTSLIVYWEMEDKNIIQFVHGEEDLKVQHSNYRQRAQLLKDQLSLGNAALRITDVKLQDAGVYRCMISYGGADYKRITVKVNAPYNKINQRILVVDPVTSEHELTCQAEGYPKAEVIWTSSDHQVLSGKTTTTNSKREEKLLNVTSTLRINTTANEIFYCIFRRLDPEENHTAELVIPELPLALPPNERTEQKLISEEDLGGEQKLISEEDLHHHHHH
Observable: koff (s⁻¹)

1) H2aM8314N (antibody, mouse IgG2, V domains shown, also called H2M8314N) VH: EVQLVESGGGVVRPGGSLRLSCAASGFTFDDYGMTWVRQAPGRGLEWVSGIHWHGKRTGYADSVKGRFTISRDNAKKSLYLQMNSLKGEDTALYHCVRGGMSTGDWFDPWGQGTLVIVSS VL: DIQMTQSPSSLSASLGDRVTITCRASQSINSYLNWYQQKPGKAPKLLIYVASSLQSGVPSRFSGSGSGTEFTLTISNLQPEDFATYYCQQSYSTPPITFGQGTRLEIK: 0.000152
2) H2aM8323N (antibody, mouse IgG2, V domains shown, also called H2M8323N) VH: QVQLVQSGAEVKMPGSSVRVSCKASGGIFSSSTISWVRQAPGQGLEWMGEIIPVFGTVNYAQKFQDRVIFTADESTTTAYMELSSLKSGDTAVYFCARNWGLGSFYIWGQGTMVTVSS VL: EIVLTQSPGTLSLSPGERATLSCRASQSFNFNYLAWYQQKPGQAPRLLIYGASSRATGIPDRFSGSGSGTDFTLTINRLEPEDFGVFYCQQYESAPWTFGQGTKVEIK: 0.0282
3) H2aM8317N (antibody, mouse IgG2, V domains shown, also called H2M8317N) VH: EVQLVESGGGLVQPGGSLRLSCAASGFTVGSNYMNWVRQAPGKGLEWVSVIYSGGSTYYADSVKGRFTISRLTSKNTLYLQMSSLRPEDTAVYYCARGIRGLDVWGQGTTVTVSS VL: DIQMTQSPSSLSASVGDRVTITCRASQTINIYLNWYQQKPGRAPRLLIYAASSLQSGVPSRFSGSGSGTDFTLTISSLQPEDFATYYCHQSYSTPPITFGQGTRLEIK: 0.0476
4) H2aM8310N (antibody, mouse IgG2, V domains shown, also called H2M8310N) VH: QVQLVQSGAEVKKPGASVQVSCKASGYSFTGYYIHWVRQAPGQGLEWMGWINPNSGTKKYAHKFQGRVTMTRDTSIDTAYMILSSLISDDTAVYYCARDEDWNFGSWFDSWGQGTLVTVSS VL: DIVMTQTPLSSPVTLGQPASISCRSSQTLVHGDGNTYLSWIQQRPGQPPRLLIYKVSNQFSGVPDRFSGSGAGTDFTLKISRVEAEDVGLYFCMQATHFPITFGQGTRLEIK: 0.00107
